- measured.on: Claudin 18.2 (CLDN18.2), expressed on CHOS-CLDN 18.2 / HEK293-CLDN 18.2 / HCC827-CLDN 18.2 cells (human, UniProt P56856-2 1-261)
- test.description: cell-based or functional assay
property.name: Killing percentage, ADCC (PBMC, HEK293-CLDN18.2 cells), 0.0001024 µg/ml (%)
All answers are understood in %, so give the number only.

q: Request the reported Killing percentage, ADCC (PBMC, HEK293-CLDN18.2 cells), 0.0001024 µg/ml associated with QP024025 (antibody, human IgG1, V domains shown, also called IMAB362; 175D10(IMAB362)) VH: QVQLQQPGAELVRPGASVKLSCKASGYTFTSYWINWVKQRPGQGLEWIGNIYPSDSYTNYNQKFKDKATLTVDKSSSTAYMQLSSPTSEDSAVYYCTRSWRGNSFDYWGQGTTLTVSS VL: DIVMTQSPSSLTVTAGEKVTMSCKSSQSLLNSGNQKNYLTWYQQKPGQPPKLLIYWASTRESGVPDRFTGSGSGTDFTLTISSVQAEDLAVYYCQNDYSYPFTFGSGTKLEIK
a: -2.74
